Data provenance: patent US20220306630A1

- target.entity: RORgT (Homo sapiens, UniProt P51449)
- Construct: Gal4 (fusion partner); expressed in transfected cells; host or cells: engineered Jurkat cells (Jurkat pEx/Gal/hRORγ CLBD/HYG pG5luc/blast)
- Sequence (P51449 267-516): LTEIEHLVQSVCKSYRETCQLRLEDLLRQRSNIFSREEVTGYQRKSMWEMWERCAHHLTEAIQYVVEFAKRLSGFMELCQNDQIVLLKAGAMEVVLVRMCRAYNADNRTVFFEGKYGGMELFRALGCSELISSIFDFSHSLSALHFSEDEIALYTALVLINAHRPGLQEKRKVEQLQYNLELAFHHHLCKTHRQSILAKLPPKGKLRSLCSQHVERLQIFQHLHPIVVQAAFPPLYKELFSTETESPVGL
- test.protocol: RORgT Gal4 Luciferase Reporter Gene Assay
- Assay type: cell-based
- test.conditions: engineered Jurkat cells overexpressing RORgT (LBD or full length) with Gal4 Luc reporter; 18 hours at 37° C.; 40 μM to 0.67 nM; read-out: RORg_GAL4 EC50
The entries below come with measured EC50 values attached.

| compound | target.entity | scale.unit | EC50 |
| --- | --- | --- | --- |
| COc1ccc(Oc2c(Cl)cc(NC(=O)CC3CCN(S(C)(=O)=O)CC3)cc2Cl)cc1C(C)C | RORgT (Homo sapiens, UniProt P51449) | nM | 18 |
| COc1ccc(Oc2c(Cl)cc(C(=O)NCc3ccc(S(C)(=O)=O)cc3)cc2Cl)cc1C(C)C | RORgT (Homo sapiens, UniProt P51449) | nM | 499 |
| COc1ccc(Oc2c(Cl)ccc(C(=O)NCC3CCCC(O)C3)c2Cl)cc1C(C)C (stereo not shown) [Example 226] | RORgT (Homo sapiens, UniProt P51449) | nM | 286 |
| COC(=O)NCC1CN(c2cc(Cl)c(Oc3ccc(OC)c(C(C)C)c3)c(Cl)c2)C(=O)O1 (stereo not shown) | RORgT (Homo sapiens, UniProt P51449) | nM | 433 |
